ASSAYED_TARGET: Recombinant human protein tyrosine phosphatase 1B (Homo sapiens, UniProt P18031)
Construct: purchased UBI
Sequence (P18031 whole entry): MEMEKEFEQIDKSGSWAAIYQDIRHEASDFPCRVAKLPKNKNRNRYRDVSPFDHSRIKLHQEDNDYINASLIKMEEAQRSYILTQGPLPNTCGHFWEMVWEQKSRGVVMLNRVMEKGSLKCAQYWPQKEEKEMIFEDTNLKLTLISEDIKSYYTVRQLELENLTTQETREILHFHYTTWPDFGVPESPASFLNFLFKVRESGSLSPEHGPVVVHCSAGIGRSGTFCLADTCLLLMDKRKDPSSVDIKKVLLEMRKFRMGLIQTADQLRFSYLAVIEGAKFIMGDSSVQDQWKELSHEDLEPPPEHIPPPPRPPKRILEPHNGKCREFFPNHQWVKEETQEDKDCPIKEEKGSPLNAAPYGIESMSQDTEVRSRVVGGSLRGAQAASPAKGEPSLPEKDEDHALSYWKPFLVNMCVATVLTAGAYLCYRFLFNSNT
ASSAY_REMARKS: Protein tyrosine phosphatase 1B inhibitory activity (malachite green, phosphorylated insulin receptor peptide substrate)
Type: biochemical
STUDY_CONDITIONS: recombinant human PTP1B, 60 min room temperature, absorbance 650 nm
QUANTITY_KIND: IC50 (µM)

Field: example entries. Status: answers known.
>  <MOLECULE_SMILES>
CN(Cc1ccc(C(=O)O)cc1)c1nc(-c2ccc(COc3ccc(C4CCCCC4)cc3)cc2)cs1

>  <SCALE_UNIT>
µM

>  <IC50>
0.14

$$$$
>  <MOLECULE_SMILES>
CCCC(CCC)c1ccc(N(C)Cc2ccc(-c3csc(CN(C)S(=O)(=O)c4ccc(C(=O)O)cc4)n3)cc2)cc1

>  <SCALE_UNIT>
µM

>  <IC50>
0.13

$$$$

A. CCCC(CCC)c1ccc(OCc2ccc(-c3ccc(C(=O)N(CC(=O)O)Cc4ncc(C(C)(C)C)s4)s3)cc2)cc1
B. CCCC(CCC)c1ccc(OCc2ccc(-c3ccc(C(=O)N(CC(=O)O)Cc4ccc(N(C)C)cc4)s3)cc2)cc1
Lab log: flag the item ( A or B ) with the smaller IC50 figure. Answer by quoting the chosen item's label.
A
(A: 0.16 µM, B: 0.27 µM)

----------
Catalogue of melting point values

Field: example entries. Status: answers known.
>  <COMPOUND>
CCN(Cc1ccc(C2CCCCC2)cc1)c1ccc(-c2ccc(CN(CCOc3ccccc3)CC(=O)O)s2)cc1

>  <melting point>
141 to 144 °C

$$$$
>  <COMPOUND>
CCCC(CCC)c1ccc(OCc2cccc(-c3csc(CN4CCc5ccc(C(=O)O)cc5C4)c3)c2)cc1

>  <melting point>
69.4 to 78.3 °C

$$$$
>  <COMPOUND>
CCCC(CCC)c1ccc(OCc2ccc(-c3csc(CN(CC(=O)O)Cc4ccccc4)n3)cc2)cc1

>  <melting point>
138 to 142 °C

$$$$
>  <COMPOUND>
CCCC(CCC)c1ccc(CN(CC)C(=O)c2ccc(-c3csc(CN(CC(=O)O)Cc4ccccc4)n3)cc2)cc1

>  <melting point>
59 to 65 °C

$$$$
>  <COMPOUND>
CC(C)CN(Cc1nc(-c2ccc(N(C)Cc3ccc(C4CCCCC4)cc3)cc2)cs1)S(=O)(=O)CC(=O)O

>  <melting point>
104 to 110 °C

$$$$

Quick one: melting point for CN(Cc1ccc(C2CCCCC2)cc1)c1ccc(-c2csc(CN(CC(=O)O)Cc3ccccc3)n2)cc1 ?
148 to 150 °C

Quick one: melting point for CCCC(CCC)c1ccc(N(C)Cc2ccc(-c3csc(COc4ccc(C(=O)O)cc4)n3)cc2)cc1 ?
161 to 163 °C

Quick one: melting point for CCCC(CCC)c1ccc(OCc2ccc(-c3csc(CN(CC(=O)O)C(=O)c4ccc(C(C)C)cc4)c3)cc2)cc1 ?
109 to 111 °C

Quick one: melting point for CCC(CC)c1ccc(N(Cc2ccc(-c3csc(COc4cccc(C(=O)O)c4)n3)cc2)C(C)C)cc1 ?
165 to 167 °C

Quick one: melting point for CN(Cc1ccc(C2CCCCC2)cc1)c1ccc(-c2csc(CNC(C(=O)O)c3ccccc3)n2)cc1 (stereo not drawn) ?
183 to 186 °C
